# TGT: T1, FcRn-p3 fusion protein (human, UniProt P55899 24-297; P61769 21-119)
# T1 construct: baculovirus expressed; coated on ELISA wells; not shown: amino terminal part of bacteriophage p3 protein and CVDE protein
# TEST: phage ELISA pH6 (est.)
PROPERTY NAME: Ratio/FWT (fold)
Give the value, in units of fold, as a plain number.

Some solved cases for reference:
{"columns": ["BINDER", "UNIT ABBREVIATION", "Ratio/FWT"],
 "data": [
  ["T3A_30 (other, EU numbering) CPPCPAPELLGGPSVFLFPPKPKDTLMISRTPEVTCVVEDVSHEDPEVKFNWYVDGVEVHNAKTKPREEQYNSTYRVVSVLTVLHQDWLNGKEYKCKVSNKALPAPIEKTISKAKGQPREPQVYTLPPSRDELTKNQVSLTCLVKGFYPSDIVVEWESNGQPENNYKTTPPVLDSDGSFFLYSKLTVDKSRWQQGNAFSCSVMHEALHNHYTQKSLSLSPGK", "fold", 3.4],
  ["T7A_58 (other, EU numbering) CPPCPAPELLGGPSVFLFPPKPKDTLMISRTPEVTCVVVDVSHEDPEVKFNWYVDGVEVHNAKTKPREEQYNSTYRVVSVLTVLHQDWLDGKEYKCKVSNKALPAPIEKTISKAKGQPREPQVYTLPPSRDELTKNEVSLTCLVKGFYPSDIAVEWESNGQPENNYKTTPPVLDSDGSFFLYSKLTVDKSRWQQGNVFSCSVMHEALHYHYTQKSLSLSPGK", "fold", 9.4]
]}

Lab note: C7A_02 (other, EU numbering) CPPCPAPELLGGPSVFLFPPKPKDTLMISRTPEVTCVVEDVSHEDPEVKFNWYVDGVEVHNAKTKPREEQYNSTYRVVSVLTVLHQDWLNGKEYKCKVSNKALPAPIEKTISKAKGQPREPQVYTLPPSRDELTKNQVSLTCLVRGFYPSDIVVEWESNGQPENNYKTTPPVLDSDGSFFLYSKLTVDKSRWQQGNVFSCSVMHEALHYHYTQKSLSLSPGK gave Ratio/FWT of 6.9

Lab note: T5A_37 (other, EU numbering) CPPCPAPELLGGPSVFLFPPKPKDTLMISRTPEVTCVVVDVSHEDPEVKFNWYVDGVEVHNAKTKPREEQYNGTYRVVSVLTVLHQDWLDGKEYKCKVSNKALPVPIEKTISKAKGQPREPQVYTLPPSRDELTKNQVSLTCLVKGFYPSDIAVEWESNGQPENNYKTTPPVLDSDGSFFLYSKLTVDKSRWQQGNVFSCSVMHEALHYHYTQKSLSLSPGK gave Ratio/FWT of 7

Lab note: T7A_92 (other, EU numbering) CPPCPAPELLGGPSVFLFPPKPKDTLMISRTPEVTCVVEDVSHEDPEVKFNWYVDGVEVHNAKTKPREEQYNSTYRVVSVLTVLHQDWLNGKEYKCKVSNKALPAPIEKTISKAKGQPREPQVYTLPPSRDELTKNQVSLTCLVKGFYPSDIAVEWESNGQPENNYKTTPLVLDSDGSFFLYSKLTVDKNRWQQGNVFSCSVMHEALHSHYTQKSLSLSPGK gave Ratio/FWT of 21.4

Source of measurements: patent USRE46585
